Recorded residual activity, one value per entry.
# target-system: Solute carrier organic anion transporter family member 1B3 (Homo sapiens, UniProt Q9NPD5)
# Sequence (Q9NPD5 whole entry): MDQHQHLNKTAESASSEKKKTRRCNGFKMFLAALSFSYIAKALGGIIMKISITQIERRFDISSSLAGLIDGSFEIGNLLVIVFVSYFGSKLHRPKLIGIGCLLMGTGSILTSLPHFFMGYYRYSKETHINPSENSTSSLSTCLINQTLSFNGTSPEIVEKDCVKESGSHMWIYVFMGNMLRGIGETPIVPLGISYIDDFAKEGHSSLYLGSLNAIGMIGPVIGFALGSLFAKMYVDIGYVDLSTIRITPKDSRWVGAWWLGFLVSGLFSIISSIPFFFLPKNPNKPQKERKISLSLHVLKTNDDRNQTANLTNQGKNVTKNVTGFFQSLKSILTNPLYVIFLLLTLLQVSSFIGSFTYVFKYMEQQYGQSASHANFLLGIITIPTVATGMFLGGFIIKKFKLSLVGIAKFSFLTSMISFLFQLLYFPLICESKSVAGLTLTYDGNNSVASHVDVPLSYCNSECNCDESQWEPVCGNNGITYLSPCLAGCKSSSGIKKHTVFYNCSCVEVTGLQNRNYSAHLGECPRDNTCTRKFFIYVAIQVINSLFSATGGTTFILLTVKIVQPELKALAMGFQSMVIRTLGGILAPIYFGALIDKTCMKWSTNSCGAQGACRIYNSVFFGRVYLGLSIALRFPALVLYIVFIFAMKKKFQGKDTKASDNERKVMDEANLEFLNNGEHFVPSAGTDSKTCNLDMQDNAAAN
# test-conditions: chinese hamster, cho, 10 µM
Note: unit % is implicit; provide only the numeric part.

Simply: "CC(=O)O[C@@H]1C[C@H]2C(C)(C)[C@@H](O)CC[C@]2(C)[C@H]2CC[C@]3(C)C(=CC(=O)O[C@H]3c3ccoc3)[C@@]21C" , Solute carrier organic anion transporter family member 1B3 (Homo sapiens, UniProt Q9NPD5), residual activity = 25.89

Simply: COc1ccc2[nH]cc(CCN)c2c1 [5-METHOXYTRYPTAMINE] , Solute carrier organic anion transporter family member 1B3 (Homo sapiens, UniProt Q9NPD5), residual activity = 73.24

Simply: Cc1cc(C)nc(NS(=O)(=O)c2ccc(N)cc2)n1 [SULFAMETHAZINE] , Solute carrier organic anion transporter family member 1B3 (Homo sapiens, UniProt Q9NPD5), residual activity = 97.37

Simply: COC(=O)C[C@H]1C(C)(C)C(=O)[C@@H]2CC3C4=CC(=O)O[C@@H](c5ccoc5)[C@]4(C)CC[C@@H]3[C@@]1(C)C2=O (stereo partly specified) [CARAPIN] , Solute carrier organic anion transporter family member 1B3 (Homo sapiens, UniProt Q9NPD5), residual activity = 66.49

Simply: CC(=O)Oc1ccc(Cl)c2cccnc12 [CHLOROACETOXYQUINOLINE] , Solute carrier organic anion transporter family member 1B3 (Homo sapiens, UniProt Q9NPD5), residual activity = 92.5

Simply: Cn1c(=O)c2[nH]c(C3CCCC3)nc2n(C)c1=O [8-CYCLOPENTYLTHEOPHYLLINE] , Solute carrier organic anion transporter family member 1B3 (Homo sapiens, UniProt Q9NPD5), residual activity = 94.04

Simply: CN(C)C(=O)Nc1ccc(Cl)c(Cl)c1 [DCMU] , Solute carrier organic anion transporter family member 1B3 (Homo sapiens, UniProt Q9NPD5), residual activity = 99

Simply: CC(C)CC(NC(=O)OCC1c2ccccc2-c2ccccc21)C(=O)O (single isomer, unassigned) , Solute carrier organic anion transporter family member 1B3 (Homo sapiens, UniProt Q9NPD5), residual activity = 48.34

Simply: CCOC(=O)[C@H](CCc1ccccc1)N[C@@H](C)C(=O)N1CCC[C@H]1C(=O)O.O=C(O)/C=C\C(=O)O [ENALAPRIL MALEATE] , Solute carrier organic anion transporter family member 1B3 (Homo sapiens, UniProt Q9NPD5), residual activity = 110.9

Simply: Cc1cccc(C(=O)O)c1O [HYDROXYTOLUIC ACID] , Solute carrier organic anion transporter family member 1B3 (Homo sapiens, UniProt Q9NPD5), residual activity = 110.2

Simply: Clc1ccc(C(c2ccccc2Cl)C(Cl)Cl)cc1 (stereo unspecified) [MITOTANE] , Solute carrier organic anion transporter family member 1B3 (Homo sapiens, UniProt Q9NPD5), residual activity = 98.27

Simply: COc1ccc2c(c1OC)OC[C@@H](c1ccc(OC)c(OC)c1OC)C2 [DUARTIN, DIMETHYL ETHER] , Solute carrier organic anion transporter family member 1B3 (Homo sapiens, UniProt Q9NPD5), residual activity = 110.8

Simply: COc1ccc(-c2cc(=O)c3c(O)cc(O[C@@H]4O[C@H](CO[C@@H]5O[C@@H](C)[C@H](O)[C@@H](O)[C@H]5O)[C@@H](O)[C@H](O)[C@H]4O)cc3o2)cc1O [DIOSMIN] , Solute carrier organic anion transporter family member 1B3 (Homo sapiens, UniProt Q9NPD5), residual activity = 93.34

Simply: CC(C)C(=O)Nc1ccc([N+](=O)[O-])c(C(F)(F)F)c1 [FLUTAMIDE] , Solute carrier organic anion transporter family member 1B3 (Homo sapiens, UniProt Q9NPD5), residual activity = 133.6

Simply: NC(Cc1c[nH]cn1)C(=O)Nc1ccc2ccccc2c1 (stereo unspecified) , Solute carrier organic anion transporter family member 1B3 (Homo sapiens, UniProt Q9NPD5), residual activity = 105.8

Simply: CN(C)C(=O)C(CCN1CCC(O)(c2ccc(Cl)cc2)CC1)(c1ccccc1)c1ccccc1.Cl [LOPERAMIDE HYDROCHLORIDE] , Solute carrier organic anion transporter family member 1B3 (Homo sapiens, UniProt Q9NPD5), residual activity = 94.1

Simply: CC(C)NNC(=O)c1ccncc1.O=S(=O)(O)O [IPRONIAZID SULFATE] , Solute carrier organic anion transporter family member 1B3 (Homo sapiens, UniProt Q9NPD5), residual activity = 101.8

Simply: COc1cc(C)c2c(=O)cc(-c3ccccc3)oc2c1 [METHOXYVONE] , Solute carrier organic anion transporter family member 1B3 (Homo sapiens, UniProt Q9NPD5), residual activity = 102.8

Simply: C/C1=C\CCC(=O)C2CC(C)(C)C2CC1 (stereo unspecified) [15-NORCARYOPHYLLEN-3-ONE] , Solute carrier organic anion transporter family member 1B3 (Homo sapiens, UniProt Q9NPD5), residual activity = 90.82
